TEST PROTOCOL: KB-8-5-11 Cancer Cell Toxicity qHTS against the NCATS CANVASS Library (AID 1347364); further: nearly all actives have a fitted effect of over 75% in size
EXPERIMENTAL SETUP: KB-8-5-11 MDR cells viability, CellTiter-Glo, 72 h; series mostly up to 46.1 µM
Inconclusive results are not listed. Calls of active or inactive are those of the source. The call rests on the fitted dose curve; in most records, active means well fitted cell-killing curve with a large enough effect; inconclusive means small, poorly fitted or top-dose-only effect; inactive means flat fitted curve, though single readings scatter.
The reply should name one outcome from 1 (yes) for active, 0 (no) for inactive

Reference set (4 entries):
{"COMPOUND": "CN(C)Cc1c[nH]c2ccccc12", "CLASS NAME": "0 (no)"}
{"COMPOUND": "C[C@]12CC(O)C3[C@@H](CCC4C[C@@H](O)CC[C@@]43CO)[C@@]1(O)CCC2C1=CC(=O)OC1 (stereo not given in full)", "CLASS NAME": "0 (no)"}
{"COMPOUND": "CCCC[C@@H]1CC[C@H]2CCCC(CCC)N12 (stereo not given in full)", "CLASS NAME": "0 (no)"}
{"COMPOUND": "CC1=CC2CC[C@@H]3[C@@H](C)C[C@H](C)[C@@H](C1)N23 (stereo not given in full)", "CLASS NAME": "0 (no)"}

Shifting focus to the compound that follows.
[ask] Field: outcome | Entry: `O=C(c1ccccc1O)c1[nH]c(Cl)c(Cl)c1-n1c(C(=O)c2ccccc2O)cc(Cl)c1Cl`
[reply] 1 (yes)

* * *

TEST PROTOCOL: qHTS for Inhibitors of the Functional Ribonucleoprotein Complex (vRNP) of Lymphocytic Choriomeningitis Arenaviruses (LCMV): Viability assay - alamar blue signal for LCMV Primary Screen (AID 1347085); further: nearly all actives have a fitted effect of over 80% in size
EXPERIMENTAL SETUP: alamar blue viability counter-screen, LCMV vRNP screen cells; series mostly up to 57.5 µM
Inconclusive results are not listed. The source made the active and inactive calls. Calls come from the whole dose curve; tested in HEK293 reporter line.
The reply should name one outcome from Y for active, N for inactive

[ask] Field: outcome | Entry: `COc1cc2ccc(=O)oc2cc1O`
[reply] N

[ask] And then `O=C(/C=C/c1ccccc1)OC/C=C/c1ccccc1` , what is it?
[reply] N

* * *

TEST PROTOCOL: qHTS profiling of the MIPE4 collection as inhibitors of Plasmodium falciparum (HB3) proliferation (AID 743347);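 further: plate controls were DMSO vehicle wells for no effect and artemisinin wells for full effect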
EXPERIMENTAL SETUP: P. falciparum HB3 in erythrocytes, SYBR Green DNA, 72 h; at 28.5 µM (top of the series) unless noted
PROPERTY: growth, % of control (%)
Give just the numeric value; % need not be written.

Check out these entries, answers already filled in.
{"SMILES ENTRY": "CC1(C)CC(O)CC(C)(C)N1[O]", "EXPERIMENTAL VALUE": 60.2}
{"SMILES ENTRY": "Cc1cn([C@@H]2C[C@@H](O)[C@H](CO)O2)c(=O)[nH]c1=O", "EXPERIMENTAL VALUE": 59.6}

[ask] # query: growth, % of control of entry `C[N+](C)([O-])CCNc1ccc(NCC[N+](C)(C)[O-])c2c1C(=O)c1c(O)ccc(O)c1C2=O`
[reply] 60.6

* * *

TEST PROTOCOL: qHTS for Inhibitors of the Functional Ribonucleoprotein Complex (vRNP) of Lassa (LASV) Arenavirus: Viability assay - alamar blue signal for LASV Primary Screen (AID 1347083); further: nearly all actives have a fitted effect of over 80% in size
EXPERIMENTAL SETUP: cell viability, alamar blue fluorescence (LASV minigenome counter-screen); series mostly up to 57.5 µM
Records with an inconclusive call do not appear. Active and inactive are the calls of the source. Calls follow the shape of the full dose curve; tested in HEK293 reporter line.
The reply should name one outcome from Y for active, N for inactive

{"MOLECULE": "C=CCCCCCCCCCCCC(O)CC(O)COC(C)=O (stereo unspecified)", "CLASS NAME": "N"}

[ask] Field: outcome | Entry: CCC(C(=O)O)C1CCC(C)C(C(C)C(O)C(C)C(=O)C(CC)C2OC3(C=CC(O)[C@@]4(CC[C@](C)(C5CC[C@@](O)(CC)C(C)O5)O4)O3)C(C)CC2C)O1 (stereo partly specified)
[reply] Y

[ask] And then `O=c1cc(N2CCOCC2)oc2c(-c3ccccc3)cccc12` , what is it?
[reply] Y

[ask] And then N#CC(c1ccc(O)cc1)N1CCCCC1 (stereo unspecified) , what is it?
[reply] N

* * *

TEST PROTOCOL: qHTS assay for environmental chemicals that activate the Aryl hydrocarbon Receptor (AhR) signaling pathway (AID 651777); further: % of control where 0% means no effect; nearly all actives have a fitted effect of over 15% in size
EXPERIMENTAL SETUP: 1A2-DRE human hepatoma cells, luciferase, 24 h; stronger effect = higher value
Results filed as inconclusive are left out.
PROPERTY: activation (%)
Give just the numeric value; % need not be written.

Check out these entries, answers already filled in.
{"SMILES ENTRY": "Oc1ccccc1Cl", "RESULT UNITS": "%", "activation": 0.249}
{"SMILES ENTRY": "CC(C)OC(=O)Nc1ccccc1", "RESULT UNITS": "%", "activation": 12.4}

Query molecule follows.
[ask] # query: activation of entry `C[C@]12CC[C@H]3[C@@H](CCC4=CC(=O)CC[C@@]43C)[C@@H]1CC[C@H]2O`
[reply] -2.33

* * *

TEST PROTOCOL: P-glycoprotein substrates identified in KB-8-5-11 adenocarcinoma cell line, qHTS therapeutic library screen (AID 1346987); further: nearly all actives have a fitted effect of over 65% in size
EXPERIMENTAL SETUP: KB-8-5-11 (P-gp overexpressing) viability, CellTiter-Glo, 72 h; series mostly up to 44.5 µM
Inconclusive results are not listed. Active and inactive are the calls of the source. Calls come from the whole dose curve; as a rule, active = well fitted inhibition curve with a large enough effect; inconclusive = small, poorly fitted or top-dose-only effect; inactive = flat fitted curve, though single readings scatter.
The reply should name one outcome from active, inactive

Reference set (5 entries):
{"COMPOUND": "CC1=CC2(O)/C=C/C(C)(O)C(O)C(O)/C=C/C(=O)OC23C(=O)NC(CC(C)C)C3C1C (stereo not given)", "CLASS NAME": "inactive"}
{"COMPOUND": "CN[C@]1(c2ccccc2Cl)CCCCC1=O", "CLASS NAME": "inactive"}
{"COMPOUND": "C=C1C[C@]2(O)[C@@]3(C)CCC(=O)C(C)(C)C3=C(O)C(=O)[C@@]2(C)[C@@H]2C(=O)O[C@@](C)(C(=O)OC)C(=O)[C@@]12C", "CLASS NAME": "inactive"}
{"COMPOUND": "N#Cc1ccc([C@H]2CCCC[C@H]2O)cc1C(F)(F)F", "CLASS NAME": "inactive"}
{"COMPOUND": "C=C1[C@@]23C(=O)O[C@H](C)[C@]24O[C@@]2(C(=C)[C@]5(C=CC(=O)OC5(C)C)CC[C@]32C)[C@H](O)[C@@]1(C)OC4=O", "CLASS NAME": "inactive"}

[ask] Field: outcome | Entry: `CC(=O)OC[C@]12C[C@H](OC(=O)CC(C)C)C(C)=C[C@H]1O[C@@H]1[C@H](O)[C@@H](OC(C)=O)[C@@]2(C)[C@@]12CO2`
[reply] active

[ask] And then C[C@H]1CCC/C=C/C2C[C@H](O)C[C@H]2[C@H](O)/C=C/C(=O)O1 (stereo not given in full) , what is it?
[reply] active

[ask] And then C/C=C(\C)C(=O)O[C@H]1CC2C(=C1C)[C@H]1OC(=O)[C@](C)(O)[C@]1(O)[C@H](OC(=O)CCC)C[C@@]2(C)OC(C)=O (stereo not given in full) , what is it?
[reply] inactive

[ask] And then CCC1CN2CCc3cc(OC)c(OC)cc3C2CC1CC1=NCCc2cc(O)c(OC)cc21 (stereo not given) , what is it?
[reply] inactive

[ask] And then C[C@@H]1C[C@@H](O)[C@]2(O)O[C@@H]3C[C@@]4(C=O)C(CC[C@@H]5C4CC[C@]4(C)[C@@](O)(C6=CC(=O)OC6)CC[C@]54O)C[C@H]3OC2O1 (stereo not given in full) , what is it?
[reply] active

* * *

TEST PROTOCOL: Primary qHTS to identify inhibitors of SARS-CoV-2 cell entry (AID 1645846); further: nearly all actives have a fitted effect of over 45% in size
EXPERIMENTAL SETUP: SARS-CoV-2 pseudovirus cell entry assay, luminescence; at 57.1 µM (top of the series) unless noted
Results filed as inconclusive are left out.
PROPERTY: activity change, negative = inhibition (% [at 27.1 µM])
Give just the numeric value; % [at 27.1 µM] need not be written.

{"SMILES ENTRY": "CN(C)c1ccc(-c2nc3ncc(Cl)c(N4CCN(CC(=O)Nc5nccs5)CC4)c3[nH]2)cc1", "activity change, negative = inhibition / % [at 27.1 µM]": -16}

Query molecule follows.
[ask] # query: activity change, negative = inhibition of entry `Cc1cc(NC(=O)Nc2ccc(N(C)C)cc2)c2cc(F)cc(F)c2n1`
[reply] -12.4

* * *

TEST PROTOCOL: qHTS for Inhibitors of the Functional Ribonucleoprotein Complex (vRNP) of Lymphocytic Choriomeningitis Arenaviruses (LCMV): Viability assay - alamar blue signal for LCMV Primary Screen (AID 1347085); further: nearly all actives have a fitted effect of over 80% in size
EXPERIMENTAL SETUP: alamar blue viability counter-screen, LCMV vRNP screen cells; series mostly up to 57.5 µM
Inconclusive results are not listed. Activity calls are given as the source filed them. Calls come from the whole dose curve; tested in HEK293 reporter line.
The reply should name one outcome from active, inactive

Reference set (2 entries):
{"MOLECULE": "CCCn1c(=O)c2[nH]c(C3CCCC3)nc2n(CCC)c1=O", "CLASS NAME": "inactive"}
{"MOLECULE": "O=C(CS(=O)Cc1ccco1)NCC=CCOc1cc(CN2CCCCC2)ccn1 (stereo not drawn)", "CLASS NAME": "inactive"}

Shifting focus to the molecule that follows.
[ask] Field: outcome | Entry: `COc1ccc(C[C@@H](C)[C@@H](C)Cc2ccc(OC)c(OC)c2)cc1OC`
[reply] active
